STUDY SYSTEM: Recombinant human PDGF-C from R&D Systems (1687-CC/CF; Val235-Gly345) (human, UniProt Q9NRA1 235-345)
Sequence (Q9NRA1 235-345 limits assumed, form in doubt): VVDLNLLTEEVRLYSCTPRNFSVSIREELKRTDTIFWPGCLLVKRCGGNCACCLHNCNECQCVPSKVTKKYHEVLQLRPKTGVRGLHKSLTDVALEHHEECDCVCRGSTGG
MEASUREMENT DESCRIPTION: cell-based or functional assay
Listing of entries alongside the reported % PDGF-Rα activation by PDGF-C allowed at 1.85 µg/mL antibody (100% = no antibody).
Give just the numeric value; % need not be written.

# annotated cases, reported % PDGF-Rα activation by PDGF-C allowed at 1.85 µg/mL antibody (100% = no antibody) shown
BINDER	READOUT VALUE
anti-PDGF-C antibody 5H7 (antibody, IgG1, V domains shown, Mouse monoclonal from hybridoma, IgG1, kappa; also called mAb 5H7; hybridoma LMBP 9485CB) VH: EVQLVESGGDLVKPGGSLKLSCAASGFTFSSYGMSWVRQTPDKRLEWVATIGYGGSFTYYPDSMKGRFTISRDNAKNTLFLQMSSLKSEDTAIYYCVRQAPLWDYFDYWGQGTTLTVSS VL: DVLMTQTPLSLPVSLGDQASISCRSSQTIVHSDGTTYLEWYLQKAGQSPKLLIYKVSNRFSGVPDRFSGSGSGTDFTLKISRVEAEDLGVYYCFQGSHVPPTFGGGTKLEIK	32
anti-PDGF-C antibody 2D3 (antibody, IgG1, V domains shown, Mouse monoclonal from hybridoma, IgG1, kappa; also called mAb 2D3; hybridoma LMBP 9483CB) VH: EVQLVESGGDLVKPGGSLKLSCAASGFTFSNYGMSWVRQTPDKRLEWVATIGSGGSYTYYPDSVKGRFTISRDSAKNTLYLQMSSLKSEDTAMYYCARQAPLWDYSDYWGQGTTLTVSS VL: DVLMTQTPLSLPVSLGDQASISCRSNQTIVHSNGDTYLEWYLQKPGQSPNLLIYKVSNRFSGVPDRFSGSGSGTDFTLKISRVEAEDLGVYYCFQGSHVPPTFGGGTKLEIK	49
anti-PDGF-C antibody 5A2 (antibody, IgG2b, V domains shown, Mouse monoclonal from hybridoma, IgG2b, kappa; also called mAb 5A2; hybridoma LMBP 9484CB) VH: EVQLVESGGDLVKPGGSLKLSCAASGFTFSNYGMSWVRQTPDKRLEWVATIGSGGHYTYYPDSVKGRFTISRDSAKSTLYLQMSSLKSEDTAIYYCARQAPLWDCSDYWGQGTTLTVSS VL: DVLMTQTPLSLPVSLGDQASISCRSNQSIVHSNGDTYLEWYLQKPGQSPKLLIYKVSNRFSGVPDRFSGSGSGTDFTLKISRVEAEDLGVYYCFQGSHVPPTFGGGTKLEIK	30

Give the measured % PDGF-Rα activation by PDGF-C allowed at 1.85 µg/mL antibody (100% = no antibody) for anti-PDGF-C antibody 16B1 (antibody, IgG1, V domains shown, Mouse monoclonal from hybridoma, IgG1, kappa; VH same as 2D3, VL same as 5A2; also called mAb 16B1; hybridoma LMBP 9486CB) VH: EVQLVESGGDLVKPGGSLKLSCAASGFTFSNYGMSWVRQTPDKRLEWVATIGSGGSYTYYPDSVKGRFTISRDSAKNTLYLQMSSLKSEDTAMYYCARQAPLWDYSDYWGQGTTLTVSS VL: DVLMTQTPLSLPVSLGDQASISCRSNQSIVHSNGDTYLEWYLQKPGQSPKLLIYKVSNRFSGVPDRFSGSGSGTDFTLKISRVEAEDLGVYYCFQGSHVPPTFGGGTKLEIK 38
